Read-out: Matrix Metallopeptidase 9 (MMP9), MMP9 (gene 4318)
Assay: BSK_KF3CT_MMP9: BioMAP Diversity Plus: KF3CT Assay for Matrix Metallopeptidase 9 (MMP9) Biomarker Activity (AID 2283074);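 for AC50: MMP9 protein level quantified by ELISA in the co-culture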
Conditions: primary human keratinocytes with fibroblasts; actives raise or lower the signal
Activity calls are given as the source filed them. Rule for the calls: active = hit-call score of the fitted dose curve at least 0.9, where 1 is the maximum; inactive = score below 0.9.

>  <molecule>
O=C(N[C@@H](Cc1ccccc1)[C@@H](O)C(=O)N1C[C@@H](O)[C@@H](O)C1)c1cc2cc(Cl)ccc2[nH]1

>  <AC50>
inactive

$$$$
>  <molecule>
CC(=O)OC/C=C(\C)CCC=C(C)C

>  <AC50>
inactive

$$$$
>  <molecule>
O=C(OCCCCCOC(=O)c1ccccc1)c1ccccc1

>  <AC50>
inactive

$$$$
>  <molecule>
Cc1cccc(C)c1O

>  <AC50>
inactive

$$$$
>  <molecule>
O=C(O)CCCCC(=O)O

>  <AC50>
inactive

$$$$
>  <molecule>
Cc1c(C(=O)O)c(O)cc2c1C(=O)c1c(O)c([C@@H]3O[C@H](CO)[C@@H](O)[C@H](O)[C@H]3O)c(O)c(O)c1C2=O

>  <AC50>
inactive

$$$$
>  <molecule>
COc1ccc(C)cc1N

>  <AC50>
inactive

$$$$
>  <molecule>
COc1ccc(S(=O)(=O)N2C(=O)[C@@](c3ccccc3OC)(N3C[C@H](O)C[C@H]3C(=O)N(C)C)c3cc(Cl)ccc32)c(OC)c1

>  <AC50>
inactive

$$$$
>  <molecule>
CCNc1cccc(C)c1

>  <AC50>
inactive

$$$$
>  <molecule>
Cc1ccc2ncccc2c1

>  <AC50>
inactive

$$$$
>  <molecule>
Cc1ccc(C(C)C)c(O)c1

>  <AC50>
inactive

$$$$
>  <molecule>
CN1CCN(Cc2cc(-c3ccc4[nH]c(=O)oc4c3)co2)[C@@H](c2ccc(F)cc2)C1

>  <AC50>
17.6 µM (active)

$$$$
>  <molecule>
CCOc1ccc2c(c1)C(C)=CC(C)(C)N2

>  <AC50>
inactive

$$$$
>  <molecule>
Nc1nc(N)c2nc(CNc3ccc(C(=O)N[C@@H](CCC(=O)O)C(=O)O)cc3)cnc2n1

>  <AC50>
inactive

$$$$
>  <molecule>
C=CCOC(=O)c1ccccc1C(=O)OCC=C

>  <AC50>
inactive

$$$$
>  <molecule>
CCCCC(CC)COC(=O)CC(C(=O)OCC(CC)CCCC)S(=O)(=O)O (centres undefined)

>  <AC50>
4.84 µM (active)

$$$$
>  <molecule>
CC1=C(/C=C/C(C)=C/C=C/C(C)=C/CO)C(C)(C)CCC1

>  <AC50>
32.3 µM (active)

$$$$
>  <molecule>
CCCCCCCCCCO

>  <AC50>
inactive

$$$$
>  <molecule>
Cc1nc(-c2ccc3c(c2)CCN(CCC2CCC(NC(=O)/C=C/c4ccc(F)cc4)CC2)CC3)no1 (centres undefined)

>  <AC50>
inactive

$$$$
>  <molecule>
C[C@]12C=CC(=O)C=C1CC[C@@H]1[C@@H]2C(=O)C[C@@]2(C)[C@H]1CC[C@]2(O)C(=O)CO

>  <AC50>
inactive

$$$$
>  <molecule>
Cc1oc(-c2ccccc2)nc1CCOc1cccc2c1ccn2CCC(=O)O

>  <AC50>
inactive

$$$$
>  <molecule>
C=CCc1ccc(O)c(OC)c1

>  <AC50>
inactive

$$$$
>  <molecule>
Cc1ccc(Cl)cc1

>  <AC50>
inactive

$$$$
>  <molecule>
CCc1c(C(=O)NN2CCCCC2)nn(-c2ccc(Cl)cc2Cl)c1-c1ccc(Br)cc1

>  <AC50>
4.31 µM (active)

$$$$
